# tgt: T1, SNTA1, Q13424
# T1 sequence (Q13424 82-180, limits assumed, looked up): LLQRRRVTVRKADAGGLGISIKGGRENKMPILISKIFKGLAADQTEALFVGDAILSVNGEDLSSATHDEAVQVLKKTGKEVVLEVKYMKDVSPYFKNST
# assay summary: holdup assay
# Parameters: key: below the threshold = too weak to quantify, mostly under pKd 3.1 to 4
# applied conditions: plain residues with an end cap or a label only (N-terminal biotin on a linker: ado-ado)
Field: pKd. Provide a value for each of the binders that follow.
One number for each entry.

Input: What value of pKd has been recorded for this entry: PEYLGLDVPV [ERBB2, P04626]
Output: 3.61

Let's switch to this binder now.
Input: What value of pKd has been recorded for this entry: AKPSRISTVV [IQSEC2, Q5JU85]
Output: 4.12
